System: wild type FGFR-4 (Homo sapiens) | Read-out: IC50
Sequence (P22455 22-802): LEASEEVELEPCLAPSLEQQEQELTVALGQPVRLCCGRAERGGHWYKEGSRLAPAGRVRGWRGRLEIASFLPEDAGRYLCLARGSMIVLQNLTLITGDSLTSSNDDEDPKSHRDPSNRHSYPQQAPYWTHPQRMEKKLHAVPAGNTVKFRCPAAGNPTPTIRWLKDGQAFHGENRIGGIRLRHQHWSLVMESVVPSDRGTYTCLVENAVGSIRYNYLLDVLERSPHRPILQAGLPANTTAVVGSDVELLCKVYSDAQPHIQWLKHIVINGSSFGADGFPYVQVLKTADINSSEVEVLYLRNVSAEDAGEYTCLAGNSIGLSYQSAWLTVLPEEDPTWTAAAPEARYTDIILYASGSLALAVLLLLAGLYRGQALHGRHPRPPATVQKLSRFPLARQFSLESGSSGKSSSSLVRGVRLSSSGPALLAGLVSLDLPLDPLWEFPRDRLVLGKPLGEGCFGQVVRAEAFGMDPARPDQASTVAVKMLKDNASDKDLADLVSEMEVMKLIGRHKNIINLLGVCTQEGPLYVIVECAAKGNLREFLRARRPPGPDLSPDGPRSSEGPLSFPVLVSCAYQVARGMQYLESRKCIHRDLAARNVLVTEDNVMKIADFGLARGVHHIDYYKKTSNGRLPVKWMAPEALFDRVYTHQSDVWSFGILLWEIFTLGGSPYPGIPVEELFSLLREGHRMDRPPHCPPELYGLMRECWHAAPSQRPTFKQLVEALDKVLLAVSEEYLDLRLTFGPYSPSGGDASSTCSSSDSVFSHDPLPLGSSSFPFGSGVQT

C#CC(=O)N[C@H]1Cc2ccccc2[C@H]1Nc1ncc2cc(-c3c(Cl)c(OC)cc(OC)c3Cl)ccc2n1 : 0.1 to 1 µM
C#CC(=O)N[C@H]1CCCC[C@H]1Nc1ncc2cc(-c3c(Cl)c(OC)cc(OC)c3Cl)ccc2n1 : < 0.01 µM
C=CC(=O)N[C@H]1CCCC[C@H]1Nc1ncc2nc(-c3c(Cl)c(OC)cc(OC)c3Cl)c(=O)n(CC)c2n1 : 0.1 to 1 µM
C#CC(=O)N[C@H]1CCC[C@H]1Nc1ncc2cc(-c3cccnc3)ccc2n1 : > 1 µM
C=CC(=O)N[C@H]1CN(C(=O)CN)C[C@H]1Nc1ncc2cc(-c3c(Cl)c(OC)cc(OC)c3Cl)ccc2n1 (racemic) : 0.01 to 0.1 µM

Ask: wild type FGFR-4 (Homo sapiens) / IC50 / C=CC(=O)N[C@@H]1COC[C@@H]1Nc1ncc2cc(-c3c(Cl)c(OC)cc(OC)c3Cl)ccc2n1 : value?
Reply: 0.01 to 0.1 µM

Ask: wild type FGFR-4 (Homo sapiens) / IC50 / C#CC(=O)N[C@H]1CCC[C@H]1Nc1ncc2cc(-c3c(Cl)c(OC)cc(OC)c3Cl)cc(OC)c2n1 : value?
Reply: < 0.01 µM
